Assayed system: human NLRP3 (Homo sapiens (Human), UniProt Q96P20)
Sequence (Q96P20 whole entry): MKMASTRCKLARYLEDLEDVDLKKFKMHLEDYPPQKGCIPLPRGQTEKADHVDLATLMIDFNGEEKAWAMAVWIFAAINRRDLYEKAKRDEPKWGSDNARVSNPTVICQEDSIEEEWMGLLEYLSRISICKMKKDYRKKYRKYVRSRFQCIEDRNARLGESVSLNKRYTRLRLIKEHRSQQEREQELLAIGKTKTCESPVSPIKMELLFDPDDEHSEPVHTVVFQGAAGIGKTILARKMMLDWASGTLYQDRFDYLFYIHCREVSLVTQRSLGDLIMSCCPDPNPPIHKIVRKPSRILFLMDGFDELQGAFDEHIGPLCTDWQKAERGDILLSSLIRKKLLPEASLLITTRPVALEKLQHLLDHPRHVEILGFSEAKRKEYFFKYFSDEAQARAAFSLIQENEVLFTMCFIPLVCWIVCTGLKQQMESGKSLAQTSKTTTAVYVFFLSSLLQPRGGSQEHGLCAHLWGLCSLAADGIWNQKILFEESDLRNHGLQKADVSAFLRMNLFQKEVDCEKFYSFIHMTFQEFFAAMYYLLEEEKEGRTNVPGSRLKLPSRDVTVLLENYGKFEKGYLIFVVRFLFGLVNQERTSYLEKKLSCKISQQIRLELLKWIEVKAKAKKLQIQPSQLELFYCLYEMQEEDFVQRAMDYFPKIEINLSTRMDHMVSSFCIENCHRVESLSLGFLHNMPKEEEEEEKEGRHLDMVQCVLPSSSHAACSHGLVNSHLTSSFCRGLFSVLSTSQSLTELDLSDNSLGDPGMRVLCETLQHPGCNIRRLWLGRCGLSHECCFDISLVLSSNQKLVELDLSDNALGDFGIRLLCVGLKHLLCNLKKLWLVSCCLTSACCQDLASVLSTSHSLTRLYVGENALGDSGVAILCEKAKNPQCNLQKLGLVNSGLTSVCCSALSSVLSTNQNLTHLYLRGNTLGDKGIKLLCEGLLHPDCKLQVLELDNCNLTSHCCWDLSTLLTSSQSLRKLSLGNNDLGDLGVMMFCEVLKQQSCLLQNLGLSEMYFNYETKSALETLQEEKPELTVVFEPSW
Assay summary: Human PBMC NLRP3 Assay (LPS priming, ATP stimulation, cytokine measurement)
Assay type: cell-based
Experimental context: human PBMC, LPS priming, ATP stimulation; read-out: PBMC IC50
Listing of recorded IC50 by entry.

The examples below pair each entry with its known result.
C[C@H]1C[C@@H](NC(=O)C2(c3ncc(C(F)(F)F)cc3O)CC2)CN(c2nnn[nH]2)C1 [Compound 25A]	100 to 500 nM
C[C@@H]1CCN(c2nnn[nH]2)C[C@H](NC(=O)C2(c3ccc(C(F)(F)F)c(F)c3O)CC2)C1 (single isomer, unassigned) [31A*]	< 10 nM
C[C@H]1CC[C@H](NC(=O)C2(c3ccc(Cl)cc3O)CC2)CN(c2nnn[nH]2)C1 (single isomer, unassigned) [90B*]	10 to 100 nM
C[C@@H]1CCN(c2nnn[nH]2)C[C@H](NC(=O)C2(c3ccc(Cl)c(F)c3F)CC2)C1 (single isomer, unassigned)	10 to 100 nM
C[C@@H]1CCN(c2nnn[nH]2)C[C@H](NC(=O)C2(c3cc(F)c(Cl)cc3O)CC2)C1 (single isomer, unassigned) [29A*]	10 to 100 nM
O=C(N[C@@H]1CC[C@H]2CC[C@@H]1N2c1nnn[nH]1)C1(c2ccc(Cl)c(F)c2O)CC1 [76C*]	100 to 500 nM
C[C@H]1C[C@@H](NC(=O)C2(c3c(O)cc(C4CC4)cc3OC(F)(F)F)CC2)CN(c2nnn[nH]2)C1 (single isomer, unassigned) [95A*]	10 to 100 nM
C[C@@H]1CCN(c2nnn[nH]2)C[C@H](NC(=O)C2(c3cc(F)c(C(F)(F)F)cc3F)CC2)C1 (single isomer, unassigned)	10 to 100 nM
C[C@@H]1CCN(c2nnn[nH]2)C[C@H](NC(=O)C2(c3ccc(OC(F)(F)F)cc3)CC2)C1 (single isomer, unassigned) [57A*]	10 to 100 nM
C[C@H]1C[C@@H](NC(=O)C2(c3ccc(C4CC4(F)F)cc3O)CC2)CN(c2nnn[nH]2)C1 (single isomer, unassigned) [94A*]	10 to 100 nM

Give IC50 (human NLRP3 (Homo sapiens (Human), UniProt Q96P20)) of the following compound: C[C@H]1C[C@@H](NC(=O)C2(c3ccc(Cl)cc3O)CC2)CN(c2nnn[nH]2)C1 [Compound 47A]
< 10 nM

Next compound up: Cc1ccc(C2(C(=O)N[C@@H]3C[C@H](C)CCN(c4nnn[nH]4)C3)CC2)c(O)c1F (single isomer, unassigned) [22A*]
< 10 nM

Next compound up: C[C@@H]1CCN(c2nnn[nH]2)C[C@H](NC(=O)C2(c3ccc(OC(F)(F)F)cc3F)CC2)C1 (single isomer, unassigned) [64A*]
10 to 100 nM

Next compound up: C[C@@H]1CCN(c2nnn[nH]2)C[C@H](NC(=O)C2(c3ccc(C(F)(F)F)cc3)CC2)C1 (single isomer, unassigned) [61A*]
10 to 100 nM

Next compound up: Cc1c(Cl)ccc(C2(C(=O)N[C@@H]3C[C@H](C)CCN(c4nnn[nH]4)C3)CC2)c1O (single isomer, unassigned) [21A*]
< 10 nM

Next compound up: C[C@@H]1CCN(c2nnn[nH]2)C[C@H](NC(=O)C2(c3ccc(OC(F)(F)F)cc3O)CC2)C1 (single isomer, unassigned) [62A*]
< 10 nM

Next compound up: C[C@@H]1CCN(c2nnn[nH]2)C[C@@H](NC(=O)C2(c3ccc(C(F)(F)F)c(F)c3O)CC2)C1 (single isomer, unassigned) [31B*]
10 to 100 nM

Next compound up: C[C@@H]1CCN(c2nnn[nH]2)C[C@H](NC(=O)C2(c3ccc(C(F)(F)F)cc3O)CC2)C1 (single isomer, unassigned) [63A*]
< 10 nM

Next compound up: O=C(N[C@@H]1CCCN(c2nnn[nH]2)C1)C1(c2ccc(Cl)cc2F)CC1
> 500 nM

* * *

Assayed system: human NLRP3 (Homo sapiens (Human), UniProt Q96P20)
Assay summary: Scintillation Proximity (SPA) NLRP3 Assay: displacement of 3H-MCC950
Format: binding
Experimental context: displacement of 3H-MCC950; read-out: SPA IC50
Experimental endpoint: IC50

The examples below pair each entry with its known result.
C[C@H]1CCN(c2nnn[nH]2)C[C@H](NC(=O)C2(c3ccc(Br)cc3)CC2)C1 (single isomer, unassigned) [59C*]	50 to 100 µM
Cc1ccc(C2(C(=O)N[C@H]3C[C@@H](C)[C@@H]4CC[C@H]3N4c3nnn[nH]3)CC2)cc1 [87B*]	10 to 50 µM
C[C@@H]1CCN(c2nnn[nH]2)C[C@@H](NC(=O)C2(c3ccc(C(F)(F)F)cc3F)CC2)C1 (single isomer, unassigned) [68B*]	1 to 10 µM
O=C(NC1CC(C(F)(F)F)CCN(c2nnn[nH]2)C1)C1(c2ccc(Cl)cc2)CC1 (racemic)	< 1 µM
C[C@H]1C[C@@H](NC(=O)C2(c3cnc(C(F)(F)F)cc3O)CC2)CN(c2nnn[nH]2)C1 [Compound 26A]	1 to 10 µM
C[C@H]1CCN(c2nnn[nH]2)C[C@H](NC(=O)C2(c3ccc(C4CCC4)cc3)CC2)C1 (single isomer, unassigned)	10 to 50 µM
C[C@@H]1[C@H](NC(=O)C2(c3ccc(Cl)cc3)CC2)CCCN1c1nnn[nH]1 [Compound 40A]	> 100 µM
C[C@@H]1CCN(c2nnn[nH]2)C[C@H](NC(=O)C2(c3ccc(C4CCC4)cc3)CC2)C1 (single isomer, unassigned)	1 to 10 µM

The record that follows has no IC50 shown yet.
Give IC50 (human NLRP3 (Homo sapiens (Human), UniProt Q96P20)) of the following compound: C[C@H]1CCN(c2nnn[nH]2)C[C@H](NC(=O)C2(c3ccc(OC(F)F)cc3)CC2)C1 (single isomer, unassigned) [58C*]
> 100 µM

* * *

Listing of recorded IC50 by entry.
Assayed system: human NLRP3 (Homo sapiens (Human), UniProt Q96P20)
Assay summary: Human Whole Blood (hWB) NLRP3 Assay (LPS/ATP, IL-1β)
Assay type: cell-based
Experimental context: human whole blood, LPS/ATP, IL-1β; read-out: hWB IC50

O=C(N[C@@H]1CCCCN(c2nnn[nH]2)C1)C1(c2ccc(Cl)cc2O)CC1 [Compound 52A]	< 1 µM

Which value of IC50 has been reported for C[C@H]1C[C@@H](NC(=O)C2(c3c(O)cc(C4CC4)cc3OC(F)(F)F)CC2)CN(c2nnn[nH]2)C1 (single isomer, unassigned) [95A*] in the records?
> 3 µM

Next compound up: C[C@@H]1CCN(c2nnn[nH]2)C[C@H](NC(=O)C2(c3ccc(Cl)cc3F)CC2)C1 (single isomer, unassigned) [56A*]
1 to 2 µM

Next compound up: C[C@H]1C[C@@H](NC(=O)C2(c3ccc(C4CC4)cc3O)CC2)CN(c2nnn[nH]2)C1 [Compound 23A]
< 1 µM

* * *

Assayed system: human NLRP3 (Homo sapiens (Human))
Assay summary: Scintillation Proximity (SPA) NLRP3 Assay: displacement of 3H-MCC950
Format: binding
Experimental context: displacement of 3H-MCC950; read-out: SPA IC50
pIC50: −log10 of the molar value.
Experimental endpoint: pIC50

C[C@@H]1CCN(c2nnn[nH]2)C[C@@H](NC(=O)C2(c3c(F)cc(Cl)cc3F)CC2)C1 (single isomer, unassigned) [72B*]	5.00 to 6.00
C[C@H]1CCN(c2nnn[nH]2)C[C@H](NC(=O)C2(c3ccc(C(F)(F)F)cc3F)CC2)C1 (single isomer, unassigned) [68C*]	< 4.00

The record that follows has no pIC50 shown yet.
Give pIC50 (human NLRP3 (Homo sapiens (Human))) of the following molecule: O=C(N[C@@H]1CC[C@H]2CC[C@@H]1N2c1nnn[nH]1)C1(c2ccc(C(F)(F)F)cc2O)CC1 (single isomer, unassigned) [34C*]
> 6.00

* * *

Listing of recorded pIC50 by entry.
Assayed system: human NLRP3 (Homo sapiens (Human))
Assay summary: Scintillation Proximity (SPA) NLRP3 Assay: displacement of 3H-MCC950
Assay type: binding
Experimental context: displacement of 3H-MCC950; read-out: SPA IC50
pIC50: −log10 of the molar value.

Cc1ccc(C2(C(=O)N[C@@H]3C[C@@H](C)CCN(c4nnn[nH]4)C3)CC2)cc1 (single isomer, unassigned) [71C*]	4.00 to 4.30

Which value of pIC50 has been reported for COc1cc(F)c(C2(C(=O)N[C@@H]3C[C@@H](C)[C@@H]4CC[C@H]3N4c3nnn[nH]3)CC2)c(F)c1 (single isomer, unassigned) [102A*] in the records?
> 6.00

Next compound up: C[C@H]1CCN(c2nnn[nH]2)C[C@H](NC(=O)C2(c3ccc(C4CC4)c(F)c3O)CC2)C1 (single isomer, unassigned) [32C*]
4.00 to 4.30
